Examples of molecules with documented melting point follow.

>  <MOLECULE>
Cc1cc(Br)cn2c3c(nc12)CCNC3

>  <melting point>
165 to 167 °C

$$$$

For the molecule shown here, COc1ccc([N+](=O)[O-])cc1NS(=O)(=O)c1ccc(Cl)c(C(=O)O)c1 , give the reported melting point.
221 to 223 °C

For the molecule shown here, COC(=O)c1ccc(C=O)o1 , give the reported melting point.
79 to 81 °C

For the molecule shown here, O=S1(=O)CCN(S(=O)(=O)Cl)CC1 , give the reported melting point.
177 to 179 °C

----------
Examples of molecules with documented melting point follow.

>  <MOLECULE>
COc1cc(C(C)=O)ccc1OCC(=O)O

>  <melting point>
165 to 167 °C

$$$$
>  <MOLECULE>
COc1ccc(Br)c2[nH]c(C(=O)O)cc12

>  <melting point>
246 to 248 °C

$$$$

For the molecule shown here, CC1=CC(=O)N(C2CCCCC2)C1=O , give the reported melting point.
99 to 101 °C

For the molecule shown here, COCCn1cnc2c1c(=O)n(CC(=O)O)c(=O)n2Cc1ccccc1 , give the reported melting point.
131 to 133 °C

For the molecule shown here, O=C(O)C=Cc1cc(Cl)ccc1OCc1ccccc1Br , give the reported melting point.
207 to 209 °C

For the molecule shown here, Cc1ccc(-n2nc(C)cc2N)cc1 , give the reported melting point.
118 to 120 °C

For the molecule shown here, COc1cc(C(=O)O)n(-c2ncccc2Cl)n1 , give the reported melting point.
242 to 244 °C

For the molecule shown here, CCN(Cc1ccccc1)c1ccc(C=O)cc1 , give the reported melting point.
38 to 42 °C

For the molecule shown here, CCc1ccc(-c2ccc(C=O)o2)cc1 , give the reported melting point.
45 to 47 °C

For the molecule shown here, CC(C)C1(C)CC(=O)NC1=O (stereo not given) , give the reported melting point.
78 to 80 °C

For the molecule shown here, O=S(=O)(c1cccc2cnccc12)N1CCCNCC1 , give the reported melting point.
146 to 148 °C

For the molecule shown here, COc1cc(C(=O)O)ccc1OCC(=O)NC(C)C , give the reported melting point.
193 to 195 °C

For the molecule shown here, c1ccc(-n2cccn2)nc1 , give the reported melting point.
37 to 39 °C

For the molecule shown here, Nc1ccc(C(=O)CCC(=O)O)cc1 , give the reported melting point.
184 to 186 °C

For the molecule shown here, N#Cc1ccc2nc(N)ncc2c1 , give the reported melting point.
344 to 346 °C

For the molecule shown here, Nc1cccc(C(=O)N2CCC(O)CC2)c1 , give the reported melting point.
128 to 130 °C

For the molecule shown here, N#Cc1nnc2ccccc2c1N , give the reported melting point.
319 to 321 °C

For the molecule shown here, COc1cc(F)c(S(=O)(=O)Cl)cc1OC , give the reported melting point.
82 to 84 °C

For the molecule shown here, Clc1ccnc2cc(Br)cnc12 , give the reported melting point.
182 to 184 °C

For the molecule shown here, Nc1cc(C(F)(F)F)cc2c1OCC(=O)N2 , give the reported melting point.
199 to 201 °C

For the molecule shown here, Cc1cc(C(=O)NC2CCCC2)ccc1N , give the reported melting point.
146 to 148 °C

For the molecule shown here, O=C(O)CCc1c(-c2ccc(F)cc2)[nH]c2ccccc12 , give the reported melting point.
114 to 121 °C

For the molecule shown here, O=C(O)CN1C(=O)Cc2ccccc21 , give the reported melting point.
220 to 222 °C

For the molecule shown here, Nc1c(F)cccc1S(N)(=O)=O , give the reported melting point.
136 to 138 °C

For the molecule shown here, O=C(O)c1cc2c(cc1O)CCCC2 , give the reported melting point.
170 to 172 °C

For the molecule shown here, c1ccc(-c2csc(N3CCOCC3)n2)cc1 , give the reported melting point.
75 to 77 °C

For the molecule shown here, O=C(/C=C/c1ccc2c(c1)CCO2)N1CCCC(CO)C1 (stereo not given) , give the reported melting point.
131 to 133 °C

----------
Examples of compounds with documented melting point follow.

>  <COMPOUND>
Clc1ccc(-c2nnc(Cl)c3ccccc23)cc1Cl

>  <ASSAY_VALUE>
219 to 221 °C

$$$$

For the compound shown here, N#CCc1ccc(Oc2ncccn2)cc1 , give the reported melting point.
70 to 72 °C

For the compound shown here, CC(C)(C)OC(=O)Nc1cc2ccccc2cc1C(=O)O , give the reported melting point.
179 to 181 °C

For the compound shown here, O=C(CCl)NCc1cccc(F)c1 , give the reported melting point.
53 to 55 °C

For the compound shown here, O=C1CCN(C2CC2)CCN1 , give the reported melting point.
98 to 100 °C

For the compound shown here, NC1CCc2[nH]ncc2C1 (centres undefined) , give the reported melting point.
168 to 170 °C

For the compound shown here, Cc1c[nH]nc1[N+](=O)[O-] , give the reported melting point.
183 to 185 °C

----------
Examples of compounds with documented melting point follow.

Worked cases, answers included:
>  <COMPOUND>
CCc1sc(N)c(C(N)=O)c1C

>  <melting point>
134 to 136 °C

$$$$
>  <COMPOUND>
COC(=O)c1cccc(CS(=O)(=O)Cl)c1

>  <melting point>
102 to 104 °C

$$$$

For the compound shown here, O=C(CCl)NCc1ccc(F)cc1C(F)(F)F , give the reported melting point.
95 to 97 °C

For the compound shown here, NNC(=O)CSc1n[nH]c(=O)[nH]c1=O , give the reported melting point.
225 to 227 °C

For the compound shown here, O=C1CSC(NC2CCCC2)=N1 , give the reported melting point.
110 to 112 °C

For the compound shown here, Cc1cc2ncc(SC(=O)N(C)C)cn2n1 , give the reported melting point.
144 to 146 °C

For the compound shown here, Nc1ccc(NC(=O)NC2CC2)cc1 , give the reported melting point.
161 to 163 °C

For the compound shown here, Cc1ccc2c(c1C)NC(=O)C2=O , give the reported melting point.
228 to 232 °C

For the compound shown here, N#Cc1ccc(F)c(Cl)c1Cl , give the reported melting point.
65 to 67 °C

For the compound shown here, COc1ccc(C(C)=O)cc1CSc1nnnn1C , give the reported melting point.
64 to 66 °C

For the compound shown here, O=c1c(Cl)c(Cl)cnn1-c1ccc(F)cc1F , give the reported melting point.
173 to 175 °C

For the compound shown here, COC(=O)c1csc(Br)c1 , give the reported melting point.
37 to 39 °C

For the compound shown here, NCC(O)C1CCCCC1 (configuration not stated) , give the reported melting point.
85 to 87 °C

For the compound shown here, Oc1cn(-c2ccccc2)nn1 , give the reported melting point.
160 to 162 °C

----------
Examples of compounds with documented melting point follow.

Worked cases, answers included:
>  <COMPOUND>
O=C(O)c1cccc(S(=O)(=O)Cc2ccccc2)c1

>  <melting point>
214 to 216 °C

$$$$
>  <COMPOUND>
Cn1ccc(C(=O)N2CCC[C@H]2C(=O)O)cc1=O

>  <melting point>
149 to 151 °C

$$$$
>  <COMPOUND>
CC(NC(=O)CC1CCCC1)C(=O)O (stereo not given)

>  <melting point>
139 to 141 °C

$$$$
>  <COMPOUND>
Cc1ccc(C(=O)N2CCCC(C(=O)O)C2)cc1 (stereo not given)

>  <melting point>
146 to 148 °C

$$$$

// next entry
For the compound shown here, N#CCC(=O)c1ccc(Cl)cc1F , give the reported melting point.
79 to 81 °C

----------
Examples of molecules with documented melting point follow.

Worked cases, answers included:
>  <MOLECULE>
CCn1c(CCl)nc2c(F)cccc21

>  <ASSAY_VALUE>
115 to 117 °C

$$$$
>  <MOLECULE>
O=C(O)C1CCCOC1c1ccccc1 (stereo not given)

>  <ASSAY_VALUE>
56 to 58 °C

$$$$
>  <MOLECULE>
CS(=O)(=O)c1cc(C(=O)O)ccc1Cl

>  <ASSAY_VALUE>
216 to 218 °C

$$$$
>  <MOLECULE>
O=C1COc2cc(NC(=O)OCC(F)(F)F)c(Cl)cc2N1

>  <ASSAY_VALUE>
227 to 229 °C

$$$$

// next entry
For the molecule shown here, COc1cc(C(=O)O)ccc1OCc1ccc(Br)s1 , give the reported melting point.
179 to 181 °C

----------
Examples of compounds with documented melting point follow.

>  <COMPOUND>
O=C(CCl)NCc1cccc(NC(=O)C2CC2)c1

>  <ASSAY_VALUE>
175 to 177 °C

$$$$
>  <COMPOUND>
CCCNC(=O)CN1CCNCC1

>  <ASSAY_VALUE>
31 to 32 °C

$$$$
>  <COMPOUND>
CCC(=O)Nc1ccc(C#N)cc1

>  <ASSAY_VALUE>
174 to 176 °C

$$$$
>  <COMPOUND>
O=C(O)CSCc1cccnc1

>  <ASSAY_VALUE>
109 to 111 °C

$$$$
>  <COMPOUND>
Nc1ccc2c(c1)CCN2C(=O)c1cccnc1

>  <ASSAY_VALUE>
181 to 183 °C

$$$$

For the compound shown here, N#Cc1cc(Br)ccc1N=C=O , give the reported melting point.
97 to 99 °C

For the compound shown here, Cc1nn(C)c(Cl)c1C#N , give the reported melting point.
55 to 57 °C

For the compound shown here, O=C(O)CCc1nc2ccccc2oc1=O , give the reported melting point.
167 to 169 °C

For the compound shown here, Cc1c(N)cccc1N1CCOC1=O , give the reported melting point.
140 to 142 °C

For the compound shown here, Cc1[nH]n(C(N)=S)c(=O)c1CCO , give the reported melting point.
153 to 155 °C

For the compound shown here, NS(=O)(=O)C1CCCNC1 (stereo unspecified) , give the reported melting point.
119 to 121 °C

For the compound shown here, N#Cc1nc2ccccc2cc1Br , give the reported melting point.
139 to 141 °C

For the compound shown here, Nc1ccccc1-n1cnnn1 , give the reported melting point.
84 to 86 °C
